Reference source: the supplement of paper PMC10681739

Target: ETS1 (UniProt P14921)
Sequence: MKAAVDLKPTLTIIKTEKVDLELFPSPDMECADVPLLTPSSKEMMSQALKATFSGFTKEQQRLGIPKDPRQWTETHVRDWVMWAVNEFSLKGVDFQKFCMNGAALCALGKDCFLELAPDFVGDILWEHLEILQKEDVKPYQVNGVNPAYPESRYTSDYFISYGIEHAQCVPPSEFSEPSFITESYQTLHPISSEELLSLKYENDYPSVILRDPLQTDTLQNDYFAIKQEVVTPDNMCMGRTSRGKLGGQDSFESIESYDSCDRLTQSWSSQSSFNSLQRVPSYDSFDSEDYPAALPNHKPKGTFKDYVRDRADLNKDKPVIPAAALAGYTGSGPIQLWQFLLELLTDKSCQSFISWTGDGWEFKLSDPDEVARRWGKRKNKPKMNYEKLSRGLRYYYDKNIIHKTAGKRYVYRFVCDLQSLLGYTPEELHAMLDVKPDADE
Assay: ETS1 binding intensity (PBM fluorescence) in presence of RUNX1, normalised to ETS1-only experiment (arbitrary fluorescence units); higher = stronger binding
Details: ETS1 concentration 1 nM; RUNX1 concentration 25 nM
Provide the reported ETS1 binding intensity of each item.
Give bare numbers.

{"columns": ["seqString", "targetUnderTest", "ETS1 binding intensity"],
 "data": [
  ["CGATGCTTCCGGCCTCCTATTGGGTGGTTTCTTGGC", "ETS1 (UniProt P14921)", 1050],
  ["TCACATCCTGTAATGGTTTGCGCATACCACAGTTCT", "ETS1 (UniProt P14921)", 684],
  ["GCACCGTCTACCCGGAAGTTGTGGGCTGGGAGGGAT", "ETS1 (UniProt P14921)", 9990],
  ["GAAACCGGAAGCGGCGGCTGTCCGCGGTGCCGGCTG", "ETS1 (UniProt P14921)", 6810],
  ["GGAGCAGGAAGCGTCGCCGGGGGGCCCACAAGGGTA", "ETS1 (UniProt P14921)", 614]
]}

Would you be so kind as to report ETS1 binding intensity for each listed record?
1. GGCCCAGGAAAGAGGCAGGGGTGCGGTTTCCCTCCG
2. TGGGGCCCGGAAGCGCTGGCGCCTTGCGGCCAGAAG
3. TTTTCCCACTTCCTAGGTTGTGGTGGGGATTACACA
4. CTCAGCGGAAGAGCGGGCCTCTGGGCCGCAGTGACC
5. CCCACCCAGGAAGCCGTCCTAACCACAACAGCCCTC
6. TTGCTAGAGGAAGCGCTGCCCCGGCAGCCGCAGCCA
7. GTGGGTTTAGGATATGGGTGTGGTTTCTAATTGTCT

Result:
1: 761; 2: 3180; 3: 571; 4: 430; 5: 2580; 6: 596; 7: 653

Would you be so kind as to report ETS1 binding intensity for each listed record?
1. GGCGGAACTTGTGCGTACGCTGGAAAACCGCTGGGG
2. ACCGGCCGAGCCAACTTCCGGCCGCAGAGGCTGCCG
3. GAACCCAGGTCTGCTTCCTGTGGCCACCATCTGTGC
4. CCTCTCAACAGCATTTCCTGGTGGTCAGATATCTGA
5. AGATGAGGAAGTTGGGGTTTAGAGTGGTTAAACTGT
6. TTTGAGCGGGCAGGATGTGGTGACAATGATACTGCA

Result:
545
7630
684
587
655
8140
